# target_or_test_system: human α1H T-type channels (Homo sapiens)
# procedure_text: T-type calcium channel block, whole cell patch clamp, α1H
# experimental_conditions: HEK cells stably expressing human α1H; mainly non-inactivated protocol; values above 10,000 nM represented as 10000
measurement_kind: IC50 (nM)
Hi! Could you send only the number? It should be in nM, unit omitted.

Here are 3 molecules together with their reported answers.
molecule | target_or_test_system | units_text | IC50
O=C(N[C@H]1CC[C@H](CS(=O)(=O)c2cccc(C(F)(F)F)c2)CC1)C1CCOCC1 [Compound 105] | human α1H T-type channels (Homo sapiens) | nM | 2480
CN(C(=O)CN[C@H]1CC[C@H](S(=O)(=O)c2cccc(C(F)(F)F)c2)CC1)C(C)(C)C [Compound 70] | human α1H T-type channels (Homo sapiens) | nM | 2580
CC(C)(CCNC(=O)c1ccc(Oc2ccc(Cl)cc2)cc1)S(=O)(=O)c1cccc(C(F)(F)F)c1 [Compound 506] | human α1H T-type channels (Homo sapiens) | nM | 640

Let us examine a further case.
Please report the recorded IC50 for CC(C)(CN[C@H]1CC[C@H](C(F)(F)F)CC1)S(=O)(=O)c1cccc(C(F)(F)F)c1 [Compound 517] . 6140

* * *

# target_or_test_system: CAv1.2 (Homo sapiens)
# Sequence (Q13936 whole entry): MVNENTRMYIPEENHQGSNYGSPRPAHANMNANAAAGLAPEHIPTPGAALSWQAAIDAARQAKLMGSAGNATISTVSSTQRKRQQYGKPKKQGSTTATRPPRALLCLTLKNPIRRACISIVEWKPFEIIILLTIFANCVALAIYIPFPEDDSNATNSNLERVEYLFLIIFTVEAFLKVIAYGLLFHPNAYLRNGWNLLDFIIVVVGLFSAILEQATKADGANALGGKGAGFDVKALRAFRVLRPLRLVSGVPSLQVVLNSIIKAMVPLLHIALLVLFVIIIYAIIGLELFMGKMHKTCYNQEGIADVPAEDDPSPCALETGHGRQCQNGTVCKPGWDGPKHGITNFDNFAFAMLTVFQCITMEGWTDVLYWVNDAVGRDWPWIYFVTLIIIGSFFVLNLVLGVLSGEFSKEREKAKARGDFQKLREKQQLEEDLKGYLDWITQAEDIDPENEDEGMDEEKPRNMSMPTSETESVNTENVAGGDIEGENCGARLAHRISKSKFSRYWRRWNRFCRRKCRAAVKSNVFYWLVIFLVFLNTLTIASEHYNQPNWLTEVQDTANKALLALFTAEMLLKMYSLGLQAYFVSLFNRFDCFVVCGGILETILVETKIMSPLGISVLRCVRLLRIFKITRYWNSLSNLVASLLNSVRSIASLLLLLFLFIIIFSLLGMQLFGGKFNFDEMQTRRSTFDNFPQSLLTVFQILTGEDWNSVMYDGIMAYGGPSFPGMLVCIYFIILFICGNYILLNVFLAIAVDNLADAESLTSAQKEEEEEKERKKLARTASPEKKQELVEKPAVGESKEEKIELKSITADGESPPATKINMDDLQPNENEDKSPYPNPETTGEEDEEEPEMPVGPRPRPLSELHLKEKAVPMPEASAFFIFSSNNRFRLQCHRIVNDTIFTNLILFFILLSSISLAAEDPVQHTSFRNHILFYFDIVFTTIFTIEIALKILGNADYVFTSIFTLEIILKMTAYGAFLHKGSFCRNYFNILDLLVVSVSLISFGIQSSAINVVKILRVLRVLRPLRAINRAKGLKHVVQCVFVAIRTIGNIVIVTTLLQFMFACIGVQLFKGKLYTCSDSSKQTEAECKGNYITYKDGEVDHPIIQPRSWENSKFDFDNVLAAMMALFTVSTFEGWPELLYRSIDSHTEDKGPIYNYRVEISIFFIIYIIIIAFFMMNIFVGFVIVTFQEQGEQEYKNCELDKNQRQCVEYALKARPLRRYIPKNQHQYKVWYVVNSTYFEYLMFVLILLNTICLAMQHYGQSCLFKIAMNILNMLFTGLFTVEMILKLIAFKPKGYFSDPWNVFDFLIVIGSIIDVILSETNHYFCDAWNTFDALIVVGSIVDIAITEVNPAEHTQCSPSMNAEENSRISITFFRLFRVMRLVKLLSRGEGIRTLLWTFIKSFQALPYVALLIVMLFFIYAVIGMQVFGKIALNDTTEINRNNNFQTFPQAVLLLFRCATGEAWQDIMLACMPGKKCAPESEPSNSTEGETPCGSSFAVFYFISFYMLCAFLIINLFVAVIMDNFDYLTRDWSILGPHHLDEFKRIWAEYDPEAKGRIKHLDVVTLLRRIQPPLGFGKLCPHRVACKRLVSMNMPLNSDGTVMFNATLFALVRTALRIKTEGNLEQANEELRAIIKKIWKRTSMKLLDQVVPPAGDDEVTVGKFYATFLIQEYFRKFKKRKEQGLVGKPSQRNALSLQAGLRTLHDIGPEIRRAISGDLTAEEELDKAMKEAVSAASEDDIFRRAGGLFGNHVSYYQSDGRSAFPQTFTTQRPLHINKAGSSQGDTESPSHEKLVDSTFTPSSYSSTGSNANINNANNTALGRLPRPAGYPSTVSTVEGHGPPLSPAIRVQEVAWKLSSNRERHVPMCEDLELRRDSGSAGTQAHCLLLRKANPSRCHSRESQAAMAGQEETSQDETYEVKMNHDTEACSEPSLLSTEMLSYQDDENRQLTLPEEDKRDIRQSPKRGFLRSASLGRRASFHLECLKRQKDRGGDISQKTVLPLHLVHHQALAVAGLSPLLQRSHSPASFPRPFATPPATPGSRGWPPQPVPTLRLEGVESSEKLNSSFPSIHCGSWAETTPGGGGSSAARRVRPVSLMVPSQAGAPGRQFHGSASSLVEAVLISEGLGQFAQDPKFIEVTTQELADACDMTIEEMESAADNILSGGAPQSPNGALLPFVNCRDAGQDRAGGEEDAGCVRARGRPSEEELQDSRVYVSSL
# Sequence (P54289 25-1103 partner): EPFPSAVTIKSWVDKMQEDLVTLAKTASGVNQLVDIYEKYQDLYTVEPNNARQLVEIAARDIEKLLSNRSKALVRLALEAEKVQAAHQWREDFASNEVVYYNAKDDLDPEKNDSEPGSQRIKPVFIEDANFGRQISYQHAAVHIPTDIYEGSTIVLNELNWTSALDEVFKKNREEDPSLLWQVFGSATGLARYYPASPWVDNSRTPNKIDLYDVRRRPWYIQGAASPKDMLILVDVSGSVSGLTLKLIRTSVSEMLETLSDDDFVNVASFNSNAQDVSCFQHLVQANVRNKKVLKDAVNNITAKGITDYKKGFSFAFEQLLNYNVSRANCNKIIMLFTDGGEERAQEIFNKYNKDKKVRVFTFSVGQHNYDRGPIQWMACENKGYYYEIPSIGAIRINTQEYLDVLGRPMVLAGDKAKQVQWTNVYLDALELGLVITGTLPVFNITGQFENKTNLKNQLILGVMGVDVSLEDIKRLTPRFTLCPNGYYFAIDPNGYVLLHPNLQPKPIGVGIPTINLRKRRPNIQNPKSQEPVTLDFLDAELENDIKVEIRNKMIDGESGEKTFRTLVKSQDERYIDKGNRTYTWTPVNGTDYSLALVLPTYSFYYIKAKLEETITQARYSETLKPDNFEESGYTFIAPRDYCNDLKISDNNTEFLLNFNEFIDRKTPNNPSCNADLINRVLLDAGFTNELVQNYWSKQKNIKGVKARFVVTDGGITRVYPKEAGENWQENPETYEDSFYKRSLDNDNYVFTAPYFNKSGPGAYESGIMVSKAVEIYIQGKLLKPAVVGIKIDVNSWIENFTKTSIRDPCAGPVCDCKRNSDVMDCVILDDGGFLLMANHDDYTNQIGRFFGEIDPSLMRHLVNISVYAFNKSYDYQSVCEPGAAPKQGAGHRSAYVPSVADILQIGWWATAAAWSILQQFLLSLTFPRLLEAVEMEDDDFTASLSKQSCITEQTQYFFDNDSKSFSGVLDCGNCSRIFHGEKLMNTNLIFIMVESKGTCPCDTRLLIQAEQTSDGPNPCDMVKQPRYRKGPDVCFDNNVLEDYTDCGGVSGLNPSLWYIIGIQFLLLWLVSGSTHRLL
# Sequence (Q08289 whole entry partner): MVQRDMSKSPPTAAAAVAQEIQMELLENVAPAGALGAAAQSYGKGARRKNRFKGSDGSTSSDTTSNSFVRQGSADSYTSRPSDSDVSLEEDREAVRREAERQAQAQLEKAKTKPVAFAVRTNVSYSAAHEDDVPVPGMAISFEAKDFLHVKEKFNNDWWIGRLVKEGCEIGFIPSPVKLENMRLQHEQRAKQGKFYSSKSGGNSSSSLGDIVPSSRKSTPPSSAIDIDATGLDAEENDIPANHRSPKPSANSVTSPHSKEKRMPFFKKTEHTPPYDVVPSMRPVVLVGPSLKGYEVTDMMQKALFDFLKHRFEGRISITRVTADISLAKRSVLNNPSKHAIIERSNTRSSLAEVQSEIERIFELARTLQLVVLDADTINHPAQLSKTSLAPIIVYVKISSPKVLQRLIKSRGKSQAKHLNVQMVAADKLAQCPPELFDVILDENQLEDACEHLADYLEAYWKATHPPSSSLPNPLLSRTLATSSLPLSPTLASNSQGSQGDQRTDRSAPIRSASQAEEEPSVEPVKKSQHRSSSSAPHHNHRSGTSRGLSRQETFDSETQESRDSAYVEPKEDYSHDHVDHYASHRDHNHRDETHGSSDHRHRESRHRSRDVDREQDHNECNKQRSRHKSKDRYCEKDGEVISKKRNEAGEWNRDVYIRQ
# procedure_text: FLIPR data, CAv1.2 channel blocking (Table 6)
# Type: cell-based
# experimental_conditions: inactivated state, read-out: CAv1.2 IC50 Inact.
// reported IC50 for each item listed
The answer is to be given in µM; state only the numeric part.

Here's what some known entries look like.
compound | target_or_test_system | IC50, µM
CC(C)([C@H]1C[C@@H](Nc2ccnc(C(F)(F)F)n2)C1)S(=O)(=O)c1cc(F)cc(C(F)(F)F)c1 [Compound 648] | CAv1.2 (Homo sapiens) | 2.28
CC(C)S(=O)(=O)c1cc(C(F)(F)F)cnc1C(=O)NCC1CC(C(C)(C)S(=O)(=O)c2cccc(C(F)(F)F)c2)C1 (stereo not shown) [Compound 613] | CAv1.2 (Homo sapiens) | 5.92

Please turn your attention to the following entry.
Entry CC(C)([C@H]1C[C@@H](NS(=O)(=O)c2ccc(C(F)(F)F)cc2)C1)S(=O)(=O)c1cccc(C(F)(F)F)c1 [Compound 624] has what IC50? 5.54

* * *

Readings of IC50 for the listed compounds
# target_or_test_system: human α1H T-type channels (Homo sapiens)
# procedure_text: T-type calcium channel block, whole cell patch clamp, α1H
# experimental_conditions: HEK cells stably expressing human α1H; mainly non-inactivated protocol; values above 10,000 nM represented as 10000
API: value field is a number in µM; no unit string.

compound | IC50 / µM
CC1(C)CCC(NCC(C)(C)S(=O)(=O)c2cccc(C(F)(F)F)c2)CC1 [Compound 518] | 4.12
O=C(N[C@H]1CC[C@H](S(=O)(=O)c2cccc(C(F)(F)F)c2)CC1)c1cncc(C(F)(F)F)c1 [Compound 190] | 2.53
CC(C)S(=O)(=O)c1cc(C(F)(F)F)cnc1C(=O)NCCC(C)(C)S(=O)(=O)c1cccc(C(F)(F)F)c1 [Compound 528] | 2.41
CS(=O)(=O)c1cc(C(F)(F)F)ccc1C(=O)N[C@H]1CC[C@@](F)(S(=O)(=O)c2cc(F)cc(C(F)(F)F)c2)CC1 [Compound 330] | 0.93
Cn1nc(C(F)(F)F)cc1C(=O)NC[C@H]1CC[C@@H](S(=O)(=O)c2cccc(C(F)(F)F)c2)CC1 [Compound 32] | 2.69
CC1(S(=O)(=O)c2cccc(C(F)(F)F)c2)CCC(NC(=O)c2cc(C(F)(F)F)ccn2)CC1 (stereo not drawn) [Compound 21] | 4.02
CC(C)(C(=O)Nc1nc2ccc(Cl)cc2s1)S(=O)(=O)c1cccc(C(F)(F)F)c1 [Compound 449] | 0.55
O=C(N[C@H]1CC[C@@H](S(=O)(=O)c2cccc(C(F)(F)F)c2)CC1)c1ccc(F)c(Cl)c1 [Compound 131] | 0.61
COc1cc(F)cc(C(=O)NC2CCC(S(=O)(=O)c3cccc(C(F)(F)F)c3)CC2)c1 (stereo not drawn) [Compound 25] | 4.66
CC(C)(CCNC(=O)c1cc(C(F)(F)F)nc(S(C)(=O)=O)c1)S(=O)(=O)c1cccc(C(F)(F)F)c1 [Compound 526] | 2.93

Fill blank: measured IC50 of the compound CS(=O)(=O)c1cc(C(F)(F)F)ccc1C(=O)NCC1CC(S(=O)(=O)c2cccc(C(F)(F)F)c2)C1 (stereo not drawn) [Compound 356] is ____. 3.17

* * *

# target_or_test_system: human α1H T-type channels (Homo sapiens, UniProt O95180)
# procedure_text: T-type calcium channel block, whole cell patch clamp, α1H
# experimental_conditions: HEK cells stably expressing human α1H; mainly non-inactivated protocol; values above 10,000 nM represented as 10000
# if measured IC50 < 3000 nM: 1  # else: -1

molecule | class_label
CN(C(=O)CNCCC(C)(C)S(=O)(=O)c1cccc(C(F)(F)F)c1)C(C)(C)C [Compound 473] | -1

Is IC50 strictly under 3000 nM for the entry O=C(N[C@H]1C[C@H](CS(=O)(=O)c2cccc(C(F)(F)F)c2)C1)c1ccc(C(F)(F)F)nc1 [Compound 346] ? 1

Given CC(C)S(=O)(=O)c1cc(C(F)(F)F)cnc1C(=O)N[C@H]1CC[C@H](S(=O)(=O)c2cccc(C(F)(F)F)c2)CC1 [Compound 340] , is recorded IC50 strictly lower than 3000 nM? -1

Decide: IC50 of O=C(NC[C@H]1C[C@H](S(=O)(=O)c2cccc(C(F)(F)F)c2)C1)c1ccnc(C(F)(F)F)n1 [Compound 362] strictly below 3000 nM? -1

Hi there! Is IC50 for CC(C)(C)NC(=O)CNC1(C)CCC(F)(S(=O)(=O)c2cccc(C(F)(F)F)c2)CC1 (centres unmarked) [Compound 98] below 3000 nM, do you know? -1

Please let me know if O=C(N[C@H]1CC[C@@](F)(S(=O)(=O)c2cccc(OC(F)(F)F)c2)CC1)c1ccc(F)c(Cl)c1 [Compound 256] shows IC50 below 3000 nM. -1

* * *

# Tested on: mice
# procedure_text: Mouse rotarod assay
# experimental_conditions: rod at 6 rpm, 4 hr
Below: a set of entries, each annotated with reported EPILEPSY ROTAROD (% IMPAIRED) 4 hr.
Write the answer as a number in %, unit excluded.

Solved entries:
smiles | target_or_test_system | EPILEPSY ROTAROD (% IMPAIRED) 4 hr [%]
CC(C)([C@H]1C[C@@H](NC(=O)c2ccc(C(F)(F)F)cc2S(C)(=O)=O)C1)S(=O)(=O)c1cccc(C(F)(F)F)c1 | mice | 0
CC(C)([C@H]1C[C@@H](NC(=O)c2cc(C(F)(F)F)ccn2)C1)S(=O)(=O)c1cccc(C(F)(F)F)c1 | mice | 0

Look at this compound and give its reported EPILEPSY ROTAROD (% IMPAIRED) 4 hr. CC(C)S(=O)(=O)c1cc(C(F)(F)F)cnc1C(=O)NC[C@H]1C[C@H](S(=O)(=O)c2cccc(C(F)(F)F)c2)C1 0

* * *

# target_or_test_system: human α1H T-type channels (Homo sapiens)
# procedure_text: T-type calcium channel block, whole cell patch clamp, α1H
# experimental_conditions: HEK cells stably expressing human α1H; mainly non-inactivated protocol; values above 10,000 nM represented as 10000
Grouping rule (IC50): bottom bin = under 1000 nM, middle bin = from 1000 nM up to 2000 nM, top bin = 2000 nM and over

Look over these answered cases.
compound | class_label
O=C(Nc1ccc(Oc2ccc(Cl)cc2)cc1)[C@H]1C[C@H](S(=O)(=O)c2cccc(C(F)(F)F)c2)C1 | top bin
CC(C)(C(=O)Nc1nc2cc(C(F)(F)F)ccc2[nH]1)S(=O)(=O)c1cccc(C(F)(F)F)c1 | middle bin
CS(=O)(=O)c1ccc(C(=O)N[C@H]2CC[C@@](F)(S(=O)(=O)c3cccc(C(F)(F)F)c3)CC2)c(Cl)c1 | middle bin

Tag the class for COc1ccc(C2(C(=O)N[C@H]3CC[C@@](F)(S(=O)(=O)c4cccc(C(F)(F)F)c4)CC3)CC2)cc1 top bin

Category of O=C(N[C@H]1CC[C@@](F)(S(=O)(=O)c2cccc(C(F)(F)F)c2)CC1)[C@@H]1C[C@@H](c2ccccc2)CN1 , please. middle bin

Tag the class for O=C(NC[C@H]1C[C@@H](S(=O)(=O)c2cccc(C(F)(F)F)c2)C1)c1ccnn1CC(F)(F)F bottom bin

Band of O=C(N[C@H]1CC[C@H](CS(=O)(=O)c2cccc(C(F)(F)F)c2)CC1)c1ccc(F)c(C(F)(F)F)c1 ? top bin

# bin lookup: classify CC1(S(=O)(=O)c2cccc(C(F)(F)F)c2)CCC(NC(=O)CCC(F)(F)F)CC1 (stereo not shown) by its IC50 top bin

Bin this entry: O=C(Nc1ccc(Oc2ccc(F)c(Cl)c2)nc1)[C@H]1C[C@H](S(=O)(=O)c2cccc(C(F)(F)F)c2)C1 middle bin

Hello team, could you let me know which band the following compound falls into: CC(C)S(=O)(=O)c1cc(C(F)(F)F)cnc1C(=O)N[C@H]1C[C@H](S(=O)(=O)c2cccc(C(F)(F)F)c2)C1 bottom bin

Please classify: COc1cc(C(=O)NC2(C)CCC(S(=O)(=O)c3cccc(C(F)(F)F)c3)CC2)cc(Cl)n1 (stereo not shown) top bin

Where would COc1cc(Cl)ccc1C(=O)N[C@H]1CC[C@H](S(=O)(=O)c2cccc(C(F)(F)F)c2)CC1 land among the classes by reported IC50? middle bin

Looking at O=C(N[C@H]1CC[C@@H](S(=O)(=O)c2cccc(C(F)(F)F)c2)CC1)c1ccc(Cl)c(C(F)(F)F)c1 , which class would you pick? top bin

Consider O=C(NC[C@H]1C[C@@H](S(=O)(=O)c2cccc(C(F)(F)F)c2)C1)c1cc(F)cc(Cl)c1 . To which IC50 class does it belong? top bin
